- Test system: HO-1-u-1 (Oral Cavity Carcinoma);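 also: after 72 h of two-drug dosing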
- TEST DETAILS: Bliss excess, mean over the matrix (fraction); higher = more synergy
ASSAY METRIC: Bliss excess
// no unit string in output, number only

Query :: Can you share its Bliss excess? I mean this compound: C[C@@H](Oc1cc(-c2cnn(C3CCNCC3)c2)cnc1N)c1c(Cl)ccc(F)c1Cl [Crizotinib] + Cn1cnc2c(F)c(Nc3ccc(Br)cc3Cl)c(C(=O)NOCCO)cc21 [Selumetinib] (first compound max 10 µM, 7x7, partner max 10 µM)
Result :: -0.0779

Query :: Consider next the compound NC1(C(=O)N[C@@H](CCO)c2ccc(Cl)cc2)CCN(c2ncnc3[nH]ccc23)CC1 [Capivasertib] + C[C@@H]1COCCN1C2=NC(=NC(=C2)C3(CC3)[S@](=N)(=O)C)C4=C5C=CNC5=NC=C4 [AZD6738] (first compound max 10 µM, 7x7, partner max 10 µM) in the same way.
Result :: -0.0167

---

Field: combination Emax. Provide a value for each of the compounds that follow.
- Test system: KYSE-410 (Esophageal Squamous Cell Carcinoma)
- TEST DETAILS: combination Emax (second highest fraction inhibited in the dose matrix, 72 h); higher = more inhibition; extreme values may be limits of the assay
// no unit string in output, number only

Query :: Can you share its combination Emax? I mean this compound: CC1(C)CCC(CN2CCN(c3ccc(C(=O)NS(=O)(=O)c4ccc(NCC5CCOCC5)c([N+](=O)[O-])c4)c(Oc4cnc5[nH]ccc5c4)c3)CC2)=C(c2ccc(Cl)cc2)C1 [Venetoclax] + C[C@@H](Nc1cc(F)cc(F)c1)c1cc(C(=O)N(C)C)cc2c(=O)cc(N3CCOCC3)oc12 [AZD8186] (first compound max 1 µM, 7x7, partner max 3 µM)
Result :: 0.172

Query :: Consider next the compound Cc1c2c(nn1C)CSCc1cc(n(C)n1)CSc1cc(c3ccccc3c1)OCCCc1c(C(=O)O)n(C)c3c-2c(Cl)ccc13 [AZD5991] + Cn1cnc2c(F)c(Nc3ccc(Br)cc3Cl)c(C(=O)NOCCO)cc21 [Selumetinib] (first compound max 1 µM, 7x7, partner max 3 µM) in the same way.
Result :: 0.331

Query :: Consider next the compound CC1(C)CCC(CN2CCN(c3ccc(C(=O)NS(=O)(=O)c4ccc(NCC5CCOCC5)c([N+](=O)[O-])c4)c(Oc4cnc5[nH]ccc5c4)c3)CC2)=C(c2ccc(Cl)cc2)C1 [Venetoclax] + COc1cc(Nc2ncc3c(n2)-c2ccc(Cl)cc2C(c2c(F)cccc2OC)=NC3)ccc1C(=O)O [Alisertib] (first compound max 1 µM, 7x7, partner max 10 µM) in the same way.
Result :: 0.361

Query :: Consider next the compound Cc1c2c(nn1C)CSCc1cc(n(C)n1)CSc1cc(c3ccccc3c1)OCCCc1c(C(=O)O)n(C)c3c-2c(Cl)ccc13 [AZD5991] + C=CCn1c(=O)c2cnc(Nc3ccc(N4CCN(C)CC4)cc3)nc2n1-c1cccc(C(C)(C)O)n1 [AZD1775] (first compound max 1 µM, partner max 1 µM) in the same way.
Result :: 0.625

Query :: Consider next the compound CN(CCO)CC[C@H](CSc1ccccc1)Nc1ccc(S(=O)(=O)NC(=O)c2ccc(N3CCC([C@@H](O)c4ccccc4-c4ccc(Cl)cc4)CC3)cc2)cc1S(=O)(=O)C(F)(F)F [AZD4320] + C[C@@H]1COCCN1C2=NC(=NC(=C2)C3(CC3)[S@](=N)(=O)C)C4=C5C=CNC5=NC=C4 [AZD6738] (first compound max 1 µM, 7x7, partner max 10 µM) in the same way.
Result :: 0.421

Query :: Consider next the compound CN(CCO)CC[C@H](CSc1ccccc1)Nc1ccc(S(=O)(=O)NC(=O)c2ccc(N3CCC([C@@H](O)c4ccccc4-c4ccc(Cl)cc4)CC3)cc2)cc1S(=O)(=O)C(F)(F)F [AZD4320] + Cn1cnc2c(F)c(Nc3ccc(Br)cc3Cl)c(C(=O)NOCCO)cc21 [Selumetinib] (first compound max 1 µM, 7x7, partner max 3 µM) in the same way.
Result :: 0.391
